TGI reference
Tested on: SF-268 CNS
Protocol Details: NCI tumour cell line growth inhibition, 48 h
Measurement Label: TGI

Molecule	Observed Value
OC(NN=C1CCCC1)(C(F)(F)Cl)C(F)(F)Cl	> 10 µM
CCCCN(C)/N=N/c1nc[nH]c1C(N)=O	> 100 µM
CCOC(=O)/C(=C/c1cccc(Cl)c1)N(CC)CC	> 100 µM
C[C@H](C1CC2(C)OC2(C)C(=O)O1)[C@H]1CC[C@H]2[C@@H]3[C@@H]4O[C@@H]4[C@@]4(O)CC=CC(=O)[C@]4(C)[C@H]3CC[C@]12C (stereo not given in full)	> 50 µM
NC(N)=NC1C(O)C(O)C(O)C(N=C(N)N)C1O (stereo not given)	> 100 µM
